# STUDY_SYSTEM: T1, EsCas13d, nuclease-dead (Eubacterium siraeum, UniProt B0MS50, R295A;H300A;R849A;H854A)
# T1 sequence: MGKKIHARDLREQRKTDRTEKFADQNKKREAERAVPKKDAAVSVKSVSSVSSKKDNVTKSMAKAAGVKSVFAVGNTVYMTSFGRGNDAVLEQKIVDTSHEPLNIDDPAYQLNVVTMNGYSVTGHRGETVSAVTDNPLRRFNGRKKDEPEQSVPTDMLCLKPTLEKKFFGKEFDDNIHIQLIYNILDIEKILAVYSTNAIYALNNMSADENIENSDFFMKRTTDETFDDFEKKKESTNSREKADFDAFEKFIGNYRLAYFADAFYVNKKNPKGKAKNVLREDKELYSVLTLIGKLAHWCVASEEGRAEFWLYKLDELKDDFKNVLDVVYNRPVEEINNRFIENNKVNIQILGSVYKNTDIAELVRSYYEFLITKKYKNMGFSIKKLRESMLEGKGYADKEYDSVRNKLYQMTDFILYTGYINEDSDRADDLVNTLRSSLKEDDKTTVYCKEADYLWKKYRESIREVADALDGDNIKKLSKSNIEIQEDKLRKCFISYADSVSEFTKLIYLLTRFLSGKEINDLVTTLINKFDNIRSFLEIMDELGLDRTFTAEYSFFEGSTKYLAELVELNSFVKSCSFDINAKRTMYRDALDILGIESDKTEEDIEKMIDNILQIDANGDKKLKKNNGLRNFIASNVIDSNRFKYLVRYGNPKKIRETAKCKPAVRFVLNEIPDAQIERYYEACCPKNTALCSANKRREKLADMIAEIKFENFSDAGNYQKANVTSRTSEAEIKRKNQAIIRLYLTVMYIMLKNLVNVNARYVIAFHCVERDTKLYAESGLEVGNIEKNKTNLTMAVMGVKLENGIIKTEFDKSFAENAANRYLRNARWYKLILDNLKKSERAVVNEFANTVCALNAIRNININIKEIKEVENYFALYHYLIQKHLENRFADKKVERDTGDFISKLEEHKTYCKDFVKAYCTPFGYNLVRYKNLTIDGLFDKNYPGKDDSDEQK
# ASSAY_NAME: crRNA (strand 1, pre-loaded); Mg2+; 40 mM Tris-HCl pH 7.5, 150 mM NaCl, 6 mM MgCl2, 1 mM DTT, 0.1% Tween-20, 0.2 mg/ml BSA; 25 C; 10 min per concentration, then washed
# TEST_PARAMETERS: tags: His6-TwinStrep-SUMO cleaved; N-terminal SNAP kept (SNAP-Surface 488); label: 3' end held by stalled T7 RNA polymerase
Kindly supply the reported Kd values for the records listed here.
// return the numeric value with its unit appended

Illustrative cases are given below, each with its answer.
Please fill in: Kd reported for target 1 MT 5'PFS GGG 3'PFS AUU (mixed) RNA 1: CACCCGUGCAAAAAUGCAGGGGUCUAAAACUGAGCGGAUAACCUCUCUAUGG RNA 2: GGGAAUGGAUCCACAUCUACGAAUUCGGGCCAUAGAGAGGUUAUCCGCUCAAUUAGAUCGGAAGAGCACACGU = 17.3 nM

Data point: target 1 insG 3' of 9,insG 3' of 4 (mixed) RNA 1: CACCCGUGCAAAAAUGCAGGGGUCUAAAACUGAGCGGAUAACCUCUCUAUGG RNA 2: GGGAAUGGAUCCACAUCUACGAAUUCGUACCAUAGAGAGGUUAGUCCGCGUCACCGAGAUCGGAAGAGCACACGU ; Kd = 8.9 nM

The measured Kd associated with target 1 insG 3' of 10,insU 3' of 5 (mixed) RNA 1: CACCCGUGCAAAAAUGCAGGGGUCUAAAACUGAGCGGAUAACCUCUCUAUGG RNA 2: GGGAAUGGAUCCACAUCUACGAAUUCGUACCAUAGAGAGGUUGAUCCGUCUCACCGAGAUCGGAAGAGCACACGU reads 43 nM

Note to self: Kd recorded for target 3 insU 3' of 4,insA 3' of 2 (mixed) RNA 1: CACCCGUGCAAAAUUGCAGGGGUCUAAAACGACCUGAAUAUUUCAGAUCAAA RNA 2: GGGAAUGGAUCCACAUCUACGAAUUCGUUUUUGAUCUGAAAUAUUCAGUGUACUGCAGAUCGGAAGAGCACACGU was 4.65 nM

For target 3 G3C,U7G (mixed) RNA 1: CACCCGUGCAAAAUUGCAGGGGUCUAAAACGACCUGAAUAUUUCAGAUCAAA RNA 2: GGGAAUGGAUCCACAUCUACGAAUUCGUUUUUGAUCUGAAAUAUGCAGCUCUGCAGAUCGGAAGAGCACACGU the binder record lists Kd as 60 nM

response.value for target 2 MT 5'PFS CUU 3'PFS CGU (mixed) RNA 1: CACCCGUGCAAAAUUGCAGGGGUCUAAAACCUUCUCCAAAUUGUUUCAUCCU RNA 2: GGGAAUGGAUCCACAUCUACGAAUUCCUUAGGAUGAAACAAUUUGGAGAAGCGUAGAUCGGAAGAGCACACGU (field: Kd) = 3.8 nM

Given item target 3 insA 3' of 15,insU 3' of 3 (mixed) RNA 1: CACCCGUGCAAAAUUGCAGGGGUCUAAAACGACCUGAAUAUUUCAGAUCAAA RNA 2: GGGAAUGGAUCCACAUCUACGAAUUCGUUUUUGAUCUAGAAAUAUUCAGGUUCUGCAGAUCGGAAGAGCACACGU , the value recorded as its Kd is 59.5 nM

Reported Kd ( target 2 MT 5'PFS CUG 3'PFS UCG (mixed) RNA 1: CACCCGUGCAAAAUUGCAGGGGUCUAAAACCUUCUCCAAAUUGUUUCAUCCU RNA 2: GGGAAUGGAUCCACAUCUACGAAUUCCUGAGGAUGAAACAAUUUGGAGAAGUCGAGAUCGGAAGAGCACACGU ) = 3.1 nM

Short answer for target 1 insA 3' of 8,insC 3' of 3 (mixed) RNA 1: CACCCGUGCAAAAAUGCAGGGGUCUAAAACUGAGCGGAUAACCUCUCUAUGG RNA 2: GGGAAUGGAUCCACAUCUACGAAUUCGUACCAUAGAGAGGUUAUACCGCUCCACCGAGAUCGGAAGAGCACACGU : Kd was 15.8 nM

Entry target 1 A1C,G12U (mixed) RNA 1: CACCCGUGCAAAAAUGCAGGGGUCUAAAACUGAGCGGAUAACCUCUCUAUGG RNA 2: GGGAAUGGAUCCACAUCUACGAAUUCGUACCAUAGAGAGUUUAUCCGCUCCCCGAGAUCGGAAGAGCACACGU — recorded Kd = 13.9 nM

Would you mind giving Kd for every binder in the list below?
1. target 1 insG 3' of 3,insA 3' of 3 (mixed) RNA 1: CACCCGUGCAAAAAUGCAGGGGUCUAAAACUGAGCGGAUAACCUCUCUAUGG RNA 2: GGGAAUGGAUCCACAUCUACGAAUUCGUACCAUAGAGAGGUUAUCCGCUGACACCGAGAUCGGAAGAGCACACGU
2. target 2 MT 5'PFS AGC 3'PFS AUU (mixed) RNA 1: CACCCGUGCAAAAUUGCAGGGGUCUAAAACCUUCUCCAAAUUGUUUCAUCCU RNA 2: GGGAAUGGAUCCACAUCUACGAAUUCAGCAGGAUGAAACAAUUUGGAGAAGAUUAGAUCGGAAGAGCACACGU
3. target 1 insU 3' of 13,insU 3' of 6 (mixed) RNA 1: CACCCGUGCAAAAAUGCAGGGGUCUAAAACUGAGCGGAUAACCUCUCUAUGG RNA 2: GGGAAUGGAUCCACAUCUACGAAUUCGUACCAUAGAGAGUGUUAUCCUGCUCACCGAGAUCGGAAGAGCACACGU
4. target 1 insC 3' of 19,insA 3' of 13 (mixed) RNA 1: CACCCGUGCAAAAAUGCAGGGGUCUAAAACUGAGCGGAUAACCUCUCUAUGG RNA 2: GGGAAUGGAUCCACAUCUACGAAUUCGUACCAUCAGAGAGAGUUAUCCGCUCACCGAGAUCGGAAGAGCACACGU
5. target 3 insU 3' of 16,insG 3' of 2 (mixed) RNA 1: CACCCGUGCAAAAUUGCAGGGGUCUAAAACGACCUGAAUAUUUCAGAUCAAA RNA 2: GGGAAUGGAUCCACAUCUACGAAUUCGUUUUUGAUCUUGAAAUAUUCAGGUGCUGCAGAUCGGAAGAGCACACGU

Response:
1. 6.1 nM
2. 6.8 nM
3. 17.9 nM
4. 19.5 nM
5. 16.1 nM
